# testDetails: yeast display, Sf9 membrane polyspecificity reagent, FACS + sequencing; frameworks hold sequencing errors
propertyLabel: polyreactivity (PSR sort gate)

// solved cases for polyreactivity (PSR sort gate) follow
chainSequence	propertyLabel	testResult
QVQLVESGGGLVQAGGSLRLSCAASGLTFGYYDMGRYRQAPGKERELVAAITSGGTTNYADSVKGRFTISRDNAKNTVYLQMNSQKPEDNAVYYCNADYYSRIVGVRIYDYWGQGTQVTVSS	polyreactivity (PSR sort gate)	low polyreactivity
QVQLVESGGGLVQAGGSLRLSCAASGFIFRYYAMGWYRQAPGKERELVAAISRSGGRTYYADSVKGRFTISRDNAKNTVYLQMNSLKPEDTAVYYCAARYPVRPDDGYWGQGTQVTVSS	polyreactivity (PSR sort gate)	high polyreactivity
QDQLVESGGGLVQAGGSLRLSCAASGRTFTRYAMGWYRPAPGKERELVAAISKRGGSTYYADSVKGRFTISRDNAKNTVYLQMNSLKPEDTAVYYCAADQPYHDSEYWGQGTQVTVSS	polyreactivity (PSR sort gate)	high polyreactivity
QVQLVESGGGVVQAGGSLRLSCAASGFTFAQYAMGWYRQAPGKERELVATITRGGITYYADSVKGRFTISRDNAKNTVYLQMNSLKPEDTAVYYCAARVVPPYSRRDDYWGQGTQVTVSS	polyreactivity (PSR sort gate)	high polyreactivity

Shifting focus to the sequence that follows.
Entry under review: `QVQLVESGGGLVQAGGSLRLSCAASGMTFTSNVLGWYRQAHGKERELVAAISSGGSTYDADSVKGRFTMSRDNAKNTVYLQMNSLKPEDTAVYYCNSKLWGQYDYWGQGTQVTVSS` . Reported polyreactivity (PSR sort gate)?
low polyreactivity
